These data points were gathered from the supplement of paper PMC4466140.

target: CaBzz1-D2; assay: SPOT peptide array binding signal intensity (averaged, normalized) (arbitrary units (background-subtracted, floor 0; scale differs between SH3 domains)); higher = stronger binding of the SH3 domain to the peptide
SPOT peptide array binding signal intensity for assorted binders
Reply with the value as a number alone.

Observe how each entry below is paired with its result.
[[record]]
binder = "FSRRQSMDIPSKNRN"
quantitative_result = 308

[[record]]
binder = "TKHKAPPPPPPTAET"
quantitative_result = 3490

[[record]]
binder = "RRSKSLPITPKSIFN"
quantitative_result = 61

[[record]]
binder = "PPPPPPPPPPPLPQS"
quantitative_result = 313

[[record]]
binder = "NLPKRKPPKLQGPFS"
quantitative_result = 162

[[record]]
binder = "ALFRLSFFFPLDPAY"
quantitative_result = 416

[[record]]
binder = "FFRRSELYLPNSSKA"
quantitative_result = 32.2

[[record]]
binder = "RNNRPVPPPPPMRTT"
quantitative_result = 1310


According to the records, this binder "RKLRTVPGVPLIHLT" displays SPOT peptide array binding signal intensity of 90

According to the records, this binder "DFTLPPPPPPPGLDE" displays SPOT peptide array binding signal intensity of 5.5

According to the records, this binder "ATKSASPTLPTRRSR" displays SPOT peptide array binding signal intensity of 195
